Test system: HIPK1
details: concentration: 1 μM, replicates: in singlicate; n = 1;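 also: KINOMEscan kinase panel screen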
# maps each entry to its %Inh
observation.type: %Inh (%)

>>> reported("COc1cc(OC)cc(-c2cc3cnc(N)nc3nc2NC(=O)NC(C)(C)C)c1")
15
>>> reported("COc1cc2nccc(Nc3ccc(OCc4ccc(NC(C)=O)cc4)cc3)c2cc1OC.Cl")
0
>>> reported("CN1C(=O)C(Nc2cc(Cl)c(O)c(Cl)c2)=C(c2ccc(Cl)cc2)C1=O")
0
>>> reported("O=C1NC(=O)C(c2ccccc2)=C1Nc1cccc(O)c1")
8
>>> reported("COc1cc(Nc2nccc(N3CCC(NC(=O)C4COc5ccccc5O4)C3)n2)cc(OC)c1OC (centres unmarked)")
0
>>> reported("Cc1nnc(-c2ccc(C)c(-c3ccc(C(=O)O)cc3)c2)o1")
0
>>> reported("CCS(=O)c1ccc(-c2coc3ccc(-c4nnc(C)o4)cc23)cc1 (centres unmarked)")
30
>>> reported("COc1cccc(-n2cnc3c(N)ncnc32)c1")
18

* * *

Tested on: ICK
details: concentration: 1 μM, replicates: in singlicate; n = 1
observation.type: %Inh (%)

>>> reported("Cn1c(=O)c(F)c(Nc2ccc(I)cc2F)c2c(=O)n(OC[C@H](O)CO)cnc21")
0
>>> reported("O=c1cc(N2CCOCC2)nc2n(Cc3ccc(F)c(Cl)c3)ccn12 [GSK2297099]")
16
>>> reported("CCC(=O)c1c(-c2ccccc2)c2cc(Cl)ccc2c(=O)n1Cc1cc(S(C)(=O)=O)n(CC(F)F)n1")
0
>>> reported("CCCC(=O)Nc1n[nH]c2ncc(-c3cccc4ccccc34)cc12 [SB-642057]")
45
>>> reported("CCC(=O)c1c(-c2ccccc2)c2cc(Cl)ccc2c(=O)n1Cc1cc(S(C)(=O)=O)n(CC(N)=O)n1")
0
>>> reported("O=C(Nc1n[nH]c2nc(-c3ccccc3)c(Cl)cc12)C1CC1 [SB-734909]")
29
>>> reported("COc1cc2ncn(-c3cc(OCCCc4ccccc4)c(C(N)=O)s3)c2cc1OC [GSK205189]")
0
>>> reported("CCC(=O)c1c(-c2ccccc2)c2cc(Cl)ccc2c(=O)n1Cc1ccc(C(=O)O)cc1")
0
>>> reported("O=C(Nc1ccc2c(c1)OCO2)NC1CCN(c2ccnc(NCc3ccc(F)cc3)n2)CC1 [GSK1379859]")
0
>>> reported("Nc1nccc2scc(-c3ccc4c(c3)CCN4C(=O)Cc3ccccc3)c12 [GSK2576924]")
0
>>> reported("COc1cccc(C2=C(N(C)c3ccccc3)C(=O)NC2=O)c1 [SB-334865]")
0
>>> reported("Cc1ccccc1COc1cc(-n2cnc3cc(Cl)ccc32)sc1C(N)=O [GW813349]")
0
>>> reported("OCCCNc1nccc(-c2c(-c3cccc(C(F)(F)F)c3)nn3cc(C(F)(F)F)ccc23)n1 [GW630813]")
0
>>> reported("Nc1ncnc2c1ncn2-c1cccc2ccccc12 [SKF-97184]")
0
>>> reported("Cl.NS(=O)(=O)c1cccc(Nc2cc(-c3ccc(F)cc3)n[nH]2)c1 [GW824645]")
12
>>> reported("O=C1NC(=O)C(c2ccccc2)=C1Nc1cccc(O)c1 [SB-390534]")
10
>>> reported("CCn1c(-c2ccoc2)nc2cnccc21 [SB-733887]")
14
>>> reported("Cc1nc(N(C)[C@H]2CN(C(=O)CC#N)CC[C@H]2C)c2cc[nH]c2n1")
0
>>> reported("COc1cc2nccc(Nc3cccc(Oc4ccccc4)c3)c2cc1OC.Cl [GW284543]")
0
>>> reported("CCS(=O)c1ccc(-c2coc3ccc(-c4nnc(C)o4)cc23)cc1 (stereo not drawn)")
10
>>> reported("Nc1n[nH]c2ncc(-c3ccccc3)cc12 [SB-517081]")
0

* * *

System: EPHB4
details: concentration: 1 μM, replicates: in singlicate; n = 1
observation.type: %Inh (%)

>>> reported("O=C(Nc1ccc2c(c1)OCO2)NC1CCN(c2ccnc(NCc3ccc(F)cc3)n2)CC1 [GSK1379859]")
0
>>> reported("COc1ccc(Nc2nccc(N3CCC(NS(=O)(=O)c4ccc(NC(C)=O)cc4)C3)n2)cc1 (centres unmarked) [GSK1379729]")
25
>>> reported("CCC(=O)c1c(-c2ccccc2)c2cc(Cl)ccc2c(=O)n1Cc1cc(S(C)(=O)=O)n(CC(N)=O)n1")
0
>>> reported("Cl.NS(=O)(=O)c1cccc(Nc2cc(-c3ccc(F)cc3)n[nH]2)c1 [GW824645]")
0
>>> reported("COc1cc2ncn(-c3cc(OCCCc4ccccc4)c(C(N)=O)s3)c2cc1OC [GSK205189]")
6
>>> reported("COc1cc(Nc2ccnc3ccc(C(F)(F)F)cc23)cc(OC)c1OC [GW577382]")
20
>>> reported("COc1cc(Nc2nccc(N3CCC(NC(=O)C(C)c4ccc(Cl)cc4)C3)n2)cc(OC)c1OC (centres unmarked) [GSK1379757]")
11
>>> reported("COc1cccc(C2=C(N(C)c3ccccc3)C(=O)NC2=O)c1 [SB-334865]")
0
>>> reported("COc1cc2ncn(-c3cc(OCc4ccncc4Br)c(C(N)=O)s3)c2cc1OC [GW854278]")
18
>>> reported("CCn1c(-c2nonc2N)nc2ccccc21 [SB-693162/GW549034]")
0
>>> reported("COC(=O)c1c(-c2ccccc2)c2cc(Br)ccc2c(=O)n1Cc1ccc(NC(=O)CCC(=O)O)cc1")
13
>>> reported("Cc1ccccc1COc1cc(-n2cnc3cc(Cl)ccc32)sc1C(N)=O [GW813349]")
10
>>> reported("COc1cc(OC)cc(-c2cc3cnc(N)nc3nc2NC(=O)NC(C)(C)C)c1")
0
>>> reported("Cc1ccc(Oc2ccc(Nc3ncnc4cc[nH]c34)cc2C)cn1")
28
>>> reported("FC(F)(F)c1ccc(-c2ncn(CCCN3CCOCC3)c2-c2ccncc2)cc1 [SB-217780]")
9
>>> reported("Cc1c(Cn2c(C)nn3c(=O)cc(N4CCO[C@H](C)C4)nc23)cccc1C(F)(F)F [GSK2373690]")
0
>>> reported("COc1ccc(CNC(=O)NC2CCN(c3ccnc(Nc4ccc(F)cc4)n3)C2)cc1 (centres unmarked) [GSK1379706]")
16
>>> reported("Nc1ncnc2c1ncn2-c1cccc2ccccc12 [SKF-97184]")
0
>>> reported("CN1C(=O)C(Nc2ccccc2)=C(c2ccccc2)C1=O [SB-300079]")
0
>>> reported("O=C(NCCNc1ccnc(Nc2ccc(F)cc2)n1)Nc1ccc2c(c1)OCO2 [GSK1379882]")
0
>>> reported("COc1ccc(-c2cc3c(C)nc(N)nc3n([C@H]3CC[C@H](O)CC3)c2=O)cn1")
0
>>> reported("Cc1nnc(-c2ccc(C)c(-c3ccc(C(=O)O)cc3)c2)o1 [GW608005]")
5
>>> reported("Nc1nccc2scc(-c3ccc4c(c3)CCN4C(=O)Cc3ccccc3)c12 [GSK2576924]")
22

* * *

Tested on: ACVR1
details: concentration: 1 μM, replicates: in singlicate; n = 1
# maps each entry to its %Inh
observation.type: %Inh

>>> reported("COc1cc(OC)cc(-c2cc3cnc(N)nc3nc2NC(=O)NC(C)(C)C)c1")
"0%"
>>> reported("CCC(=O)c1c(-c2ccccc2)c2cc(Cl)ccc2c(=O)n1Cc1ccc(C(=O)O)cc1")
"11%"
>>> reported("Cc1cccc(-c2nc(Nc3ccc4c(cnn4C)c3)c3ccccc3n2)n1 [GW876731]")
"0%"
>>> reported("Nc1ncnc2c1ncn2-c1ccc(Cl)cc1 [AH2635]")
"3%"
>>> reported("Cl.NS(=O)(=O)c1cccc(Nc2cc(-c3ccc(F)cc3)n[nH]2)c1 [GW824645]")
"0%"
>>> reported("Cl.c1ccc(Cn2cnc3cc(Nc4ncnc5ccccc45)ccc32)cc1 [GW272142]")
"17%"

* * *

# maps each entry to its %Inh
Tested on: CTK
Construct: gene MATK
details: concentration: 1 μM, replicates: in singlicate; n = 1
observation.type: %Inh (%)

>>> reported("COc1cc2nccc(Nc3cccc(Oc4ccccc4)c3)c2cc1OC.Cl")
10
>>> reported("COc1cc(Nc2nccc(N3CCC(NC(=O)C(C)c4ccc(Cl)cc4)C3)n2)cc(OC)c1OC (centres unmarked)")
0
>>> reported("CCCNC(=O)Nc1ccc(Oc2ncnc3ccn(C)c23)cc1")
35
>>> reported("O=C1NC(=O)C(c2ccccc2)=C1Nc1cccc(O)c1")
4
>>> reported("Nc1ncnc2c1ncn2-c1cccc(F)c1")
22
>>> reported("CCc1nc(-c2cccc(C)c2)c(-c2ccncc2)s1")
0
>>> reported("CCn1c(-c2ccoc2)nc2cnccc21")
0
>>> reported("Fc1cccc(CSc2nnc(-c3ccc4c(c3)CCO4)o2)c1")
11
>>> reported("O=C(NCc1cccs1)c1cc(C(=O)c2c(Cl)cccc2Cl)c[nH]1")
0
>>> reported("Cc1cc(Nc2nc(-c3cccc(C)n3)nc3ccccc23)ccn1")
18
>>> reported("CCC(=O)c1c(-c2ccccc2)c2cc(Cl)ccc2c(=O)n1Cc1cc(S(C)(=O)=O)n(CCC(C)(C)O)n1")
0
